# relative growth listing for each entry below
- Test system: Pseudomonas 3 (Pseudomonas mandelii)
- ASSAY INFO: relative growth (AUC of 72 h growth curve relative to DMSO control, dAUC) (ratio); higher = more growth (less inhibition), active = hit call of the paper
- EXPERIMENTAL SETUP: 20 µM
The answer should be a number; do not append a unit.

COP(=S)(OC)Oc1nc(Cl)c(Cl)cc1Cl    1.09
CCCCOC(=O)[C@H](C)Oc1ccc(Oc2ccc(C#N)cc2F)cc1    1.07
Cc1nc(N(C)C)nc(OC(=O)N(C)C)c1C    0.978
N#Cc1cc(Br)c(O)c(Br)c1    1.09
CNC(=O)ON=C(C)SC    0.999
COP(=S)(OC)SCN1C(=O)c2ccccc2C1=O    0.971

Prompt line: I would be grateful if you could share the reported relative growth for "CC1(C)CON(Cc2ccccc2Cl)C1=O" .
Response line: 1.06
